Target: T1, CD25 (Homo sapiens, UniProt P01589)
T1 sequence (P01589 22-272): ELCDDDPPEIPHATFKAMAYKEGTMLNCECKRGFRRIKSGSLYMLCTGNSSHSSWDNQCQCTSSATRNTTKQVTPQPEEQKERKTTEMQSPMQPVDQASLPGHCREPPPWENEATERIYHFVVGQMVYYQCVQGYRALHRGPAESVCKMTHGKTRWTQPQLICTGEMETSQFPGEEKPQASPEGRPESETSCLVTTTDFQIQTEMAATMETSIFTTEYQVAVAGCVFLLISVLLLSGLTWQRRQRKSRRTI
Test: Binding of human IgG1 format antibodies to CD25 by Octet
Conditions: read-out: Biosensor Measured CD25 Affinity
assay-metric: pKd
Quick note: pKd values are minus log10 of concentrations in mol/L.

The reported value for YU401-G07: anti-CD25 scFv clone, SEQ ID NO: 831 (protein, listed as Mus musculus) scFv: LGRSLRLSCAASGFTFSSYGMHWVRQAPGKGLEWVAVISYDGSNKYYADSVKGRFTISRDNSKNTLYLQMNSLRAEDTAVYYCAKGDVNYGMDVWGQGTTVTVSSCAKGDVNYGMDVWSYVLTQPPSVSVAPGQTARISCGGSNIGSKTVNWYRKKAGQAPVLVVYDGRDRPSGIPERFSGSNSGNAATLIISRVEVGDEADYYCQVWDTSGDLHWAFGGGTKLTVLCQVWDTSGDLHWAF in terms of pKd is 7.81

molecule YU400-D09: anti-CD25 scFv clone, SEQ ID NO: 823 (protein, listed as Mus musculus) scFv: PGSSVKVSCKASGGTFSSYAISWVRQAPGQGLEWMGGIIPIFGTANYAQKFQGRVTITADESTSTAYMELSSLRSEDTAVYYCARDFNPFSITIFEMDVWGQGTTVTVSSCARDFNPFSITIFEMDVWQSVLTQPPSVSAAPGQKVTISCSGSSSNIGNNYVSWYQQLPGTAPKLLIYDNNKRPSGIPDRFSGSKSGTSATLGITGLQTGDEADYYCGTWDSSLSALVFGGGTKLTVLCGTWDSSLSALVF , pKd observed: 7.26
